The reported measurements were obtained from paper PMC4336329.

- EXPERIMENTAL_TARGET: human ether-à-go-go-related gene (hERG) potassium channel (human)
- ASSAY_PROCEDURE: primary screen, population patch clamp on CHO cells stably expressing hERG; higher = less effect of the substance
In all, about 310,000 compounds went through this assay and about 14,000 (4.5%) showed an effect of 50% or more. The effect is printed as a negative number. Many of the other results were omitted from the sample, so strong results are more common in it than they were.
Assignment: determine reported hERG current change (%, negative = inhibition) at 10uM for the given molecules.
Report field: quantity (unit follows the number).

Worked examples follow.
- COMPOUND_STRING: "Cc1ccc(-n2c(CSc3nc(C)cc(C)n3)nnc2SCC(=O)N2CCCC2)cc1"
  EXPERIMENTAL_TARGET: "human ether-à-go-go-related gene (hERG) potassium channel (human)"
  RESULT: "-8.81%"
- COMPOUND_STRING: "O=C(NC1CCN(C(=O)Nc2cccc(Cl)c2)CC1)C1CCCCC1"
  EXPERIMENTAL_TARGET: "human ether-à-go-go-related gene (hERG) potassium channel (human)"
  RESULT: "13.1%"
- COMPOUND_STRING: "O=C(Nc1cccc(Cl)c1)NC1CCCCC1"
  EXPERIMENTAL_TARGET: "human ether-à-go-go-related gene (hERG) potassium channel (human)"
  RESULT: "8.14%"
- COMPOUND_STRING: "O=C(Nc1cccc(-c2cccc(Cl)c2)c1)C1CCN(C2CCC2)CC1"
  EXPERIMENTAL_TARGET: "human ether-à-go-go-related gene (hERG) potassium channel (human)"
  RESULT: "-73.7%"

Now look at this one.
Task: Need hERG current change (%, negative = inhibition) at 10uM of "NC(=O)c1cc([N+](=O)[O-])cc2c1C=Cc1ccccc1O2" , thanks.
Output: 2.92%

====

- EXPERIMENTAL_TARGET: human ether-à-go-go-related gene (hERG) potassium channel (human);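 note: peak tail current of the secondary pulse compared with the same well before compound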
- ASSAY_PROCEDURE: primary screen, population patch clamp on CHO cells stably expressing hERG; higher = less effect of the substance
- Method: Briefly, Chinese hamster ovary (CHO) cells stably expressing the hERG channel were dislodged from tissue culture flasks and dispensed into PPC plates. […] During the recording, background leak currents were estimated by a 100 ms step to -80 mV from an initial holding potential of -70 mV and subtracted from the subsequent current measurement. The campaign was conducted in two phases using slight differences in recording protocol. […]
The whole screen tested about 310,000 compounds, of which about 14,000 (4.5%) showed an effect of 50% or more. The effect is printed as a negative number. For the sample, strong results were picked, then their nearest neighbours and some compounds at random.
Assignment: determine reported hERG current change (%, negative = inhibition) at 10uM for the given molecules.
Numbers only, in %.

Worked examples follow.
- COMPOUND_STRING: "O=C(CCNC(=O)c1ccc(Cl)cc1)NCCCN1CCOCC1"
  UNIT_SPEC: "%"
  NUMERIC_RESULT: 4.31
- COMPOUND_STRING: "Cc1cccc(CSCCNC(=O)c2ccc(CN3CCOCC3)cc2)c1"
  UNIT_SPEC: "%"
  NUMERIC_RESULT: -28.3
- COMPOUND_STRING: "Cc1ccc(C(=O)NCCCN2CCOCC2)o1"
  UNIT_SPEC: "%"
  NUMERIC_RESULT: 30.3

Okay, here is my list. What is hERG current change (%, negative = inhibition) at 10uM for each of these?
1. Cc1ccc(SCCNC(=O)c2ccc(CN3CCOCC3)cc2)cc1
2. CCOc1ccc2c(C)c(C(=O)O)oc2c1OCC
3. Cl.O=C(NCCCN1CCOCC1)c1ccc(CSc2ccc(Cl)cc2)cc1

Output:
[-32.6, 16.5, -59.2]

====

- EXPERIMENTAL_TARGET: human ether-à-go-go-related gene (hERG) potassium channel (human, UniProt Q12809);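 note: peak tail current of the secondary pulse compared with the same well before compound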
- Sequence (Q12809 whole entry, looked up): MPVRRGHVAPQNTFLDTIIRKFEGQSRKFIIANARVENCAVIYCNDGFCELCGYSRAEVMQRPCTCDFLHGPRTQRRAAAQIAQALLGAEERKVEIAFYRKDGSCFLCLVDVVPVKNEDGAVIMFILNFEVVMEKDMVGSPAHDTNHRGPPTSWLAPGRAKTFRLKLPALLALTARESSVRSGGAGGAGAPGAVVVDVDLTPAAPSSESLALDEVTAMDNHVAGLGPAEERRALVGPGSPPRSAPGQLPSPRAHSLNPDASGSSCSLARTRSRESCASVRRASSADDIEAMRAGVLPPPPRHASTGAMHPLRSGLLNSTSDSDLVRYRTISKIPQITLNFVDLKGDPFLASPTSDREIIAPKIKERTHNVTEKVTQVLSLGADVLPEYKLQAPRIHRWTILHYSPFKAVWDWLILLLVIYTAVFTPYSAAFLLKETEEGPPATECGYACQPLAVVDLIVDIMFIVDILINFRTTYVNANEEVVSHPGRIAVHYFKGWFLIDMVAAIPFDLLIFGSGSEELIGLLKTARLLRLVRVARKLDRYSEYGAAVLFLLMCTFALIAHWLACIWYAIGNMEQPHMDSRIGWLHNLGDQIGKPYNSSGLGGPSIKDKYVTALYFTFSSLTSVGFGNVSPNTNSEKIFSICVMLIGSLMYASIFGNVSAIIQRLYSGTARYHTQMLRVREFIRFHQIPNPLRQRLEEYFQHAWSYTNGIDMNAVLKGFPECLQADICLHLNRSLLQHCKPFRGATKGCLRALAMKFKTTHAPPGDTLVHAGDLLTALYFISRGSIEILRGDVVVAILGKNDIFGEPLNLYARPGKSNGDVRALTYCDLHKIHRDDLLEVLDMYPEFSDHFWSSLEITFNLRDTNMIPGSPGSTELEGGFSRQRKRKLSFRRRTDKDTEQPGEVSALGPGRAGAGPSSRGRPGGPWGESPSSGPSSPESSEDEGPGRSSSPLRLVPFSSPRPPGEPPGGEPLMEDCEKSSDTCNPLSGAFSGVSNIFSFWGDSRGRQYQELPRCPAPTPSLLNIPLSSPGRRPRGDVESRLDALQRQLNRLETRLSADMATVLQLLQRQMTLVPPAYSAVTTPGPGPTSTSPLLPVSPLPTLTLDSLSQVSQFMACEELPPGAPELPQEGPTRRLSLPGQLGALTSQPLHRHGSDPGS
- ASSAY_PROCEDURE: primary screen, population patch clamp on CHO cells stably expressing hERG; higher = less effect of the substance
The campaign covered roughly 310,000 compounds. About 14,000 (4.5%) showed an effect of 50% or more. The effect is printed as a negative number. Shown is part of a subset that was picked to be rich in strong results.
Would you mind classing the entries by hERG current change (%, negative = inhibition) at 10uM? Ranges: band A = under -40%, band B = from -40% up to -10%, band C = -10% and over

Answered cases to consult:
- MOLECULE: "COCCCNC(=O)c1ccc(OC)c(OC2CCN(C(C)C)CC2)c1"
  ASSIGNED_CLASS: "band C"
- MOLECULE: "Fc1ccc(Cn2nnnc2C(c2cccs2)N2CCN(C3CCCCC3)CC2)cc1 (stereo not drawn)"
  ASSIGNED_CLASS: "band A"
- MOLECULE: "Cc1ccccc1C(=O)Nc1ccnn1C1CCN(Cc2ccc(CO)o2)CC1"
  ASSIGNED_CLASS: "band C"

Task: Which class is correct for the following molecule? "CCNc1c(NS(=O)(=O)c2ccc(OC)cc2)c(=O)oc2ccccc12"
Output: band B

Task: Which class is correct for the following molecule? "Cc1ccc(CN2CCC(n3nccc3NC(=O)c3ccccc3C)CC2)o1"
Output: band B

Task: Which class is correct for the following molecule? "COc1ccc(C(=O)NCCC2=CCCCC2)cc1OC1CCN(C(C)C)CC1"
Output: band A

Task: Which class is correct for the following molecule? "COc1ccccc1CCNC(=O)c1ccc(OC)c(OC2CCN(C(C)C)CC2)c1"
Output: band A

Task: Which class is correct for the following molecule? "COc1ccc(CCC(=O)Nc2ccc(N3CCOCC3)cc2)cc1"
Output: band B

Task: Which class is correct for the following molecule? CN1CCN(C(c2cccs2)c2nnnn2Cc2ccc(F)cc2)CC1.Cl (stereo not drawn)
Output: band B

Task: Which class is correct for the following molecule? "CCOc1ccc(S(=O)(=O)NCc2cccnc2)cc1"
Output: band C

Task: Which class is correct for the following molecule? O=C(Nc1ccnn1C1CCN(CC2CC=CCC2)CC1)c1ccccc1Cl (stereo not drawn)
Output: band A

Task: Which class is correct for the following molecule? COc1ccc(-c2nnc(SCC3CCCO3)n2C)cc1 (stereo not drawn)
Output: band C

Task: Which class is correct for the following molecule? COc1ccc(C(CNCC(=O)Nc2ccccc2F)N(C)C)cc1.O=C(O)C(=O)O (stereo not drawn)
Output: band B

Task: Which class is correct for the following molecule? Fc1ccc(C(c2nnnn2Cc2cccs2)N2CCN(C3CCCCC3)CC2)cc1 (stereo not drawn)
Output: band A

Task: Which class is correct for the following molecule? Fc1ccc(Cn2nnnc2C(c2cccs2)N2CCCCCC2)cc1 (stereo not drawn)
Output: band B

====

Assignment: determine reported hERG current change (%, negative = inhibition) at 10uM for the given compounds.
- EXPERIMENTAL_TARGET: human ether-à-go-go-related gene (hERG) potassium channel (human, UniProt Q12809);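 note: peak tail current of the secondary pulse compared with the same well before compound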
- ASSAY_PROCEDURE: primary screen, population patch clamp on CHO cells stably expressing hERG; higher = less effect of the substance
About 14,000 (4.5%) of roughly 310,000 compounds showed an effect of 50% or more. The effect is printed as a negative number. The sample as a whole holds a higher share of strong results than the screen did.
Answers are plain numbers, in %.

Worked examples follow.
- COMPOUND: "O=C(NC1CCN(C(=O)Nc2ccccc2)CC1)C1CCCCC1"
  NUMERIC_RESULT: -7.88
- COMPOUND: "Cc1cc(C)cc(-n2c(SCC(=O)NCc3ccc4c(c3)OCO4)nc3ccccc3c2=O)c1"
  NUMERIC_RESULT: 15.9
- COMPOUND: "COc1ccc(-c2nn(-c3ccccc3)cc2/C=C2/SC(=S)N(Cc3ccco3)C2=O)c(C)c1"
  NUMERIC_RESULT: 8.73
- COMPOUND: "CCN1C(=O)/C(=C/c2ccc3c(c2)CCN3CCCCl)C(=O)NC1=S"
  NUMERIC_RESULT: -3.76
- COMPOUND: "NC(=O)c1ccsc1NC(=O)COC(=O)c1ccc(Cl)c(N)c1"
  NUMERIC_RESULT: -3.1

Okay, here is my list. What is hERG current change (%, negative = inhibition) at 10uM for each of these?
1. c1ccc(Nc2nc(N3CCNCC3)nc(N3CCOCC3)n2)cc1
2. COc1ccc(S(=O)(=O)NNC(=O)c2csc(-n3nc(C)cc3C(F)(F)F)n2)cc1

Output:
1. -43
2. 19.9

Okay, here is my list. What is hERG current change (%, negative = inhibition) at 10uM for each of these?
1. CC(=O)NCCOC(=O)c1nn(Cc2ccccc2)c(=O)c2ccccc12
2. CC(C)=C1C2CCC1C1C(=O)N(c3nccs3)C(=O)C21 (stereo not drawn)

Output:
1. -22.4
2. 33

====

- EXPERIMENTAL_TARGET: human ether-à-go-go-related gene (hERG) potassium channel (human);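 note: peak tail current of the secondary pulse compared with the same well before compound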
- ASSAY_PROCEDURE: primary screen, population patch clamp on CHO cells stably expressing hERG; higher = less effect of the substance
Screen size: about 310,000 compounds; about 14,000 (4.5%) showed an effect of 50% or more. The effect is printed as a negative number. The sample holds strong results, similar compounds and a random draw of the others, so the mix is not that of the screen.
Assignment: determine reported hERG current change (%, negative = inhibition) at 10uM for the given compounds.
One number for each entry, in %.

Worked examples follow.
- COMPOUND: "C=C(C)c1cccc(C(C)(C)NC(=O)NCC2CCCO2)c1 (stereo not drawn)"
  NUMERIC_RESULT: 3.74
- COMPOUND: "CC(=NC1CC1)c1c(-c2ccccc2)[nH]n(-c2nc3ccccc3s2)c1=O"
  NUMERIC_RESULT: 9.63
- COMPOUND: "Cl.O=C(CNCCO)N1CCc2ccccc21"
  NUMERIC_RESULT: -5.27
- COMPOUND: "Cc1ccc(C)c(NC2=NCCCS2)c1"
  NUMERIC_RESULT: 1.48
- COMPOUND: "CC(=O)c1ccc(OCC(O)CN2CCN(S(=O)(=O)c3cccc(Br)c3)CC2)cc1 (stereo not drawn)"
  NUMERIC_RESULT: 22.8
- COMPOUND: "CCOc1ccc(S(=O)(=O)N2CCN(CC(O)COc3cccc([N+](=O)[O-])c3)CC2)cc1 (stereo not drawn)"
  NUMERIC_RESULT: -65.5
- COMPOUND: "CCOC(=O)c1[nH]c(C)c(C(=O)OCC(=O)N(CC)C2CCS(=O)(=O)C2)c1C (stereo not drawn)"
  NUMERIC_RESULT: -8.58
- COMPOUND: "COc1ccc2c(c1)CC/C(=C/c1ccncc1)C2=O"
  NUMERIC_RESULT: -55.2

Okay, here is my list. What is hERG current change (%, negative = inhibition) at 10uM for each of these?
1. COc1ccc(OC)c(NC(=O)CSc2nnc(-c3ccco3)o2)c1
2. CC(=O)N1CCN(C(=O)CSc2nc3c(cnn3-c3ccccc3)c(=O)[nH]2)CC1
3. COc1cccc(C(=O)Nc2ccc(NC(=O)c3ccco3)cn2)c1
4. COc1ccc(S(=O)(=O)N2CCN(Cc3cccc(F)c3)CC2)cc1
5. CC(=O)Oc1c(Cl)c(N2CCOCC2)c(OC(C)=O)c2ccccc12

Output:
[-15.7, -9.1, -15.1, -3.34, -25.2]
